experiment: Acute toxicity (LD50), i.p.; assay type: in vivo, mice; conditions: mouse, in vivo, ip
Where a name gives a salt, the structure may show the parent alone.
Let's look at some compounds and their measured LD50.
endpoint-label: LD50

1. CC(=O)SCCNC(=O)CNC(=O)CN.O=C(O)C(F)(F)F : > 2000 mg/kg
2. CC(=O)SCCNC(=O)CN : > 1500 mg/kg
3. CC(=O)OC(CNC(=O)CN)CSC(C)=O (stereo not drawn) [Example 32, TRIFLUOROACETATE] : > 1500 mg/kg

====

Let's look at some compounds and their measured LD50.
experiment: Acute toxicity (LD50), i.p.; assay type: in vivo, mice; conditions: mouse, in vivo, ip, Table I
Counter-ions that a name gives are not always drawn.
endpoint-label: LD50 (mg/kg)

1) CC(=O)NC(C)(C)CSC(=O)CN.O=C(O)C(F)(F)F : 1500
2) CC(=O)SCCNC(=O)CN : 1200
3) C[C@H](N)C(=O)NCCSSCCNC(=O)[C@H](C)N.O=C(O)C(F)(F)F.O=C(O)C(F)(F)F [Example 45, N,N'-[…] DI(TRIFLUOROACETATE)] : 1200
4) CC(=O)SCC(C)(C)NC(=O)CN [Example 26, TRIFLUOROACETATE] : 1200
5) Br.Br.C[C@H](N)C(=O)NCCSSCCNC(=O)[C@H](C)N [Example 19, N,N'-[…] DIHYDROBROMIDE] : 800
6) NCC(=O)NCC(=O)NCCSSCCNC(=O)CNC(=O)CN.O=C(O)C(F)(F)F.O=C(O)C(F)(F)F : 2000
7) CC(=O)OC(CNC(=O)CN)CSC(C)=O (stereo not shown) [Example 32, TRIFLUOROACETATE] : 1500
8) CC(=O)OC(CNC(=O)CN)CSSCC(CNC(=O)CN)OC(C)=O (stereo not shown) : 750
9) NCC(=O)NCCSSCCNC(=O)CN.O=C(O)C(F)(F)F.O=C(O)C(F)(F)F [Example 18, N,N'-[…] DI(TRIFLUOROACETATE)] : 1200

====

test system: mice; assay: Radioprotective activity: survival at the 30th day after irradiation; format: in vivo; settings: mouse, in vivo
endpoint-label: radioprotective activity (in words)

1. CC(=O)SCCNC(=O)[C@H](C)N.O=C(O)C(F)(F)F : good radioprotection
2. C[C@H](N)C(=O)NCCSSCCNC(=O)[C@H](C)N.O=C(O)C(F)(F)F.O=C(O)C(F)(F)F [Example 45, N,N'-[…] DI(TRIFLUOROACETATE)] : good radioprotection

====

Let's look at some compounds and their measured LD50.
test system: mice; test: Acute toxicity (LD50), i.p.; assay type: in vivo; details: Table I
endpoint-label: LD50

1) NCC(=O)NCCSC(=O)C(Cl)Cl.O=C(O)C(F)(F)F : 800 mg/kg
2) CC(=O)NCCSC(=O)CN.O=C(O)C(F)(F)F : 1,000 mg/kg
3) Br.CC(=O)SCCNC(=O)[C@H](C)N : 1,500 mg/kg
4) Br.CC(=O)SCCNC(=O)CN : 1,500 mg/kg
5) Br.CC(=O)SCCNC(=O)CCCN : 800 mg/kg
6) Br.Br.NCC(=O)NCCSSCCNC(=O)CN [Example 16, N,N'-[…] DIHYDROBROMIDE] : 1,500 mg/kg
7) CC(=O)SCCNC(=O)[C@H](C)N.O=C(O)C(F)(F)F : 1,250 mg/kg

====

experiment: Acute toxicity (LD50), i.p.; assay type: in vivo, mice; conditions: mouse, in vivo, ip, Table II
Where a name gives a salt, the structure may show the parent alone.
endpoint-label: LD50 (mg/kg)

1) CC(=O)SCCNC(=O)CN [Example 8] : 1200
2) CC(=O)SCC(C)(C)NC(=O)CN [Example 26, TRIFLUOROACETATE] : 1200
3) CC(=O)OC(CNC(=O)CN)CSSCC(CNC(=O)CN)OC(C)=O (centres unmarked) [Example 31] : 750
4) CC(=O)OC(CNC(=O)CN)CSC(C)=O (centres unmarked) [Example 32, TRIFLUOROACETATE] : 1500
5) NCC(=O)NCC(=O)NCCSSCCNC(=O)CNC(=O)CN.O=C(O)C(F)(F)F.O=C(O)C(F)(F)F [Example 36] : 2000
6) CC(=O)NCCSC(=O)CN.O=C(O)C(F)(F)F [Example 34] : 1000
7) NCC(=O)NCCSSCCNC(=O)CN.O=C(O)C(F)(F)F.O=C(O)C(F)(F)F [Example 18, N,N'-[…] DI(TRIFLUOROACETATE)] : 1250
8) CC(=O)SCCNC(=O)[C@H](C)N.O=C(O)C(F)(F)F [Example 22] : 1250
9) C[C@H](N)C(=O)NCCSSCCNC(=O)[C@H](C)N.O=C(O)C(F)(F)F.O=C(O)C(F)(F)F [Example 45, N,N'-[…] DI(TRIFLUOROACETATE)] : 1200
10) CC(=O)NC(C)(C)CSC(=O)CN.O=C(O)C(F)(F)F [Example 24] : 1500

Source: patent US4816482A
